# Target or test system: HIV-1 DU422 Env (HIV-1)
# Test summary: cell-based or functional assay
The entries below are paired with their reported IC50, TZM-bl pseudovirus neutralization.

{"Binder": "1456_A12 (PG16) (TCN-117) (antibody, V domains shown) VH: HEQLVEAGGGVVQPGGSLRLSCLASGFTFHKYGMHWVRQAPGKGLEWVALISDDGMRKYHSDSMWGRVTISRDNSKNTLYLQFSSLRVEDTAMFFCAREAGGPIWHDDVKYYDFNDGYYNYHYMDVWGKGTKVTVSS VL: QSALTQPASVSGSPGQTITISCNGTSRDVGGFDSVSWYQQSPGKAPKVMVFDVSHRPSGMSNRFSGSKSGNTASLTISGLHIEDEGDYFCSSLTDRSHRIFGGGTKLTVLG", "IC50, TZM-bl pseudovirus neutralization, µg/mL": 0.36}
{"Binder": "1469_M23 (PG16) (TCN-118) (antibody, V domains shown) VH: QEKLVESGGGVVQPGGSLRLSCLASGFTFHKYGMHWVRQAPGKGLEWVALISDDGMRKYHSDSMWGRVTISRDNSKNTLYLQFSSLKVEDTAMFFCAREAGGPIWHDDVKYYDFNDGYYNYHYMDVWGKGTTVTVSS VL: QSALTQPASVSGSPGQTITISCNGTRSDVGGFDSVSWYQQSPGRAPKVMVFDVSHRPSGISNRFSGSKSGNTASLTISGLHIEDEGDYFCSSLTDRSHRIFGGGTKLTVLG", "IC50, TZM-bl pseudovirus neutralization, µg/mL": 0.97}
{"Binder": "1489_I13 (PG16) (TCN-120) (antibody, V domains shown) VH: QEQLLESGGGVVQPGGSLRLSCLASGFTFHKYGMHWVRQAPGKGLEWVALISDDGMRKYHSNSMWGRVTISRDNSKNTLYLQFSSLKVEDTAMFFCAREAGGPIWHDDVKYYDFNDGYYNYHYMDVWGKGTTVTVSS VL: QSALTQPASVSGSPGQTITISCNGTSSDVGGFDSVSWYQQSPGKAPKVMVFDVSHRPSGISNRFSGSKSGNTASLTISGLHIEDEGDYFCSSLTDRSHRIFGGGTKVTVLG", "IC50, TZM-bl pseudovirus neutralization, µg/mL": 1.87}
{"Binder": "1503_H05 (PG16) (TCN-119) (antibody, V domains shown) VH: QEKLVESGGGVVQPGGSLRLSCLASGFTFHKYGMHWVRQAPGKGLEWVALISDDGMRKYHSDSMWGRVTISRDNSKNTLYLQFSSLKVEDTAMFFCAREAGGPIWHDDVKYYDFNDGYYNYHYMDVWGKGTIVTVSS VL: QSALTQPASVSGSPGQTITISCNGTRSDVGGFDSVSWYQQSPGKAPKVMVFDVSHRPSGISNRFSGSKSGNTASLTISGLHIEDEGDYFCSSLTDRSHRIFGGGTKVTVLG", "IC50, TZM-bl pseudovirus neutralization, µg/mL": 0.71}
